Target: Cytochrome P450 2C19 (Homo sapiens) (UniProt P33261)
Sequence (P33261 whole entry, looked up): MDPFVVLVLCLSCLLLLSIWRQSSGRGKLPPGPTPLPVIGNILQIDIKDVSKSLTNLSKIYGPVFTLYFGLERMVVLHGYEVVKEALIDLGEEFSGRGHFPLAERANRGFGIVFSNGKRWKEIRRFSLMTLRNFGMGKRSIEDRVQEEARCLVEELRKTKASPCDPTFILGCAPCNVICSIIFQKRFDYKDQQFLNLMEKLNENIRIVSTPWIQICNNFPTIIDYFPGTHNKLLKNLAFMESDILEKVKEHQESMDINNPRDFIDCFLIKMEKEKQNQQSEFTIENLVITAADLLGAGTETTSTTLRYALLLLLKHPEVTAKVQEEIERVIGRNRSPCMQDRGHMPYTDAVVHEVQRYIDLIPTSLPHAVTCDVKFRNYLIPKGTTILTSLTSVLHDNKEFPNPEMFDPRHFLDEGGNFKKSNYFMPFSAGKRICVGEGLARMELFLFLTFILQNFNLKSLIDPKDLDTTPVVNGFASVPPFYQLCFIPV
Experiment: blockers of cytochrome P450 2C19 activity – biochemical, luminescence, ADME assay, primary screen (AID 778);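 further: plate controls were negative control wells for no effect and 2.5 mM tranylcypromine positive control for full effect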
Settings: CYP2C19 Supersomes, luciferin-H EGE luminescence, 30 min; at 5 µM; hits give high values
Among all 96,000 compounds or so, about 20,000 (21%) were called active. The list is a sample of the results.
MEASUREMENT NAME: inhibition (%)

Cc1cccc(-c2noc(-c3ccc(F)cc3)n2)c1: 32.6
Cc1ccc(-c2noc(CSc3nnnn3-c3ccccc3)n2)cc1: 73.4
CCN(CC)C(=O)CSc1nnc(-c2cnccn2)n1-c1ccc(C)cc1: -1.8
CSc1nnc(CNC(=O)c2ccccc2)n1-c1ccc(F)cc1: -4.4
CN1CCN(Cc2c(O)ccc3c2oc(=O)c2ccccc23)CC1: -0.1
COc1ccc(Cl)cc1C(=O)Nc1ccc(N(C)C(C)=O)cc1: 25.6

###

Biological target: Cytochrome P450 2C19 (Homo sapiens) (UniProt P33261)
Assay: blockers of cytochrome P450 2C19 activity – biochemical, luminescence, ADME assay, primary screen (AID 778)
Conditions: CYP2C19 Supersomes, luciferin-H EGE luminescence, 30 min; at 5 µM
Among all 96,000 compounds or so, about 20,000 (21%) were called active.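 How the source made its calls: active means CYP2C19 inhibition above a set limit at 5 µM in the primary screen (cut at about 50% in these data); inactive means the rest.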 These entries were drawn from the full list.
Possible outcomes: yes (1) (active), no (0) (inactive)

COc1ccc(-n2nnnc2SCC(=O)Nc2ccccc2)cc1: no (0)
COc1ccc(C(=O)CSc2nccc(=O)[nH]2)cc1: no (0)
Cc1cc(C)cc(NC(=O)CSCc2cnn(-c3ccccc3)c2-n2cccc2)c1: no (0)
O=C1CSC(c2ccccc2)N1c1nc(-c2ccc(Cl)cc2Cl)cs1 (stereo unspecified): no (0)
CC(=O)Nc1ccc(NC(=O)CSCc2cnn(-c3ccccc3)c2-n2cccc2)cc1: yes (1)
CCC(C)(C)n1nnnc1C(c1ccccc1OC)N1CCSCC1 (stereo unspecified): no (0)
Fc1ccc(Cn2nnnc2C(c2cccs2)N2CCCCCC2)cc1 (stereo unspecified): yes (1)
Cc1cc(C(F)(F)F)nn1-c1nc(-c2ccco2)cc(C(F)(F)F)n1: no (0)
O=C(NCCC1=CCCCC1)C1CCN(Cc2cnn(-c3ccccc3)c2-n2cccc2)CC1: no (0)
CC(C)C(c1nnnn1Cc1ccccc1)N1CCC(C(N)=O)CC1 (stereo unspecified): no (0)
CSc1nnc2c(n1)OC(c1cn(C)c3ccccc13)N(C(C)=O)c1ccccc1-2 (stereo unspecified): no (0)

###

Biological target: Cytochrome P450 2C19 (Homo sapiens) (UniProt P33261)
Test: blockers of cytochrome P450 2C19 activity – biochemical, luminescence, ADME assay, primary screen (AID 778);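 further: plate controls were negative control wells for no effect and 2.5 mM tranylcypromine positive control for full effect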
Settings: CYP2C19 Supersomes, luciferin-H EGE luminescence, 30 min; at 5 µM; hits give high values
Hit rate of the full screen: of about 96,000 compounds, about 20,000 (21%) were called active. Not all results are given here.
Listed next: entries and their corresponding inhibition.
MEASUREMENT NAME: inhibition

O=C(Nc1ccccc1N1CCCCC1)c1cccc(F)c1: 19% (inactive)
O=C(Nc1cccnc1)c1ccc2c(c1)OCO2: 35.6% (inactive)
O=C(Nc1ccccc1)c1ccc2c(c1)OCO2: 81.4% (active)
O=C(Nc1ccc(N2CCN(C(=O)c3ccccc3)CC2)c(Cl)c1)c1cccnc1: 22.7% (inactive)
CC(C)C(=O)Nc1cccc(C(=O)Nc2ccc3c(c2)OCO3)c1: 30.7% (inactive)
O=C(Nc1ccccc1N1CCN(C(=O)c2ccccc2)CC1)c1ccc2c(c1)OCO2: 67% (active)
O=C(CC1N=C2c3ccccc3N=C(SCc3ccccc3Cl)N2C1=O)NCc1ccco1 (stereo unspecified): 37.8% (inactive)
CCCC(=O)Nc1ccccc1N1CCN(C(=O)c2ccccc2)CC1: 33% (inactive)
O=C(CN1CCN(c2ccccc2F)CC1)c1ccc2c(c1)OCO2: 67.3% (active)
CCOC(=O)c1c(NC(=O)CCCN2CCOCC2)sc2c1CC(C)(C)OC2: 9.3% (inactive)
Cc1ccc(F)cc1NC(=O)c1ccc2c(c1)OCO2: 33.3% (inactive)

###

Biological target: Cytochrome P450 2C19 (Homo sapiens) (UniProt P33261)
Experiment: blockers of cytochrome P450 2C19 activity – biochemical, luminescence, ADME assay, primary screen (AID 778);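 further: plate controls were negative control wells for no effect and 2.5 mM tranylcypromine positive control for full effect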
Settings: CYP2C19 Supersomes, luciferin-H EGE luminescence, 30 min; at 5 µM; hits give high values
The campaign covered roughly 96,000 compounds. About 20,000 (21%) were called active. Only a sample is shown.
MEASUREMENT NAME: inhibition (%)

Cc1ccc(S(=O)(=O)c2ccc(Oc3ccccc3)cc2)cc1: -11.2
CCC(=O)N1c2ccc(S(=O)(=O)CCC(=O)N3CCN(c4ccccc4)CC3)cc2CC1C (configuration not stated): 26.2
O=[N+]([O-])c1ccccc1NCc1ccc(Cl)cc1: 21
COc1ccccc1C1=Nc2cccc3cccc(c23)N1: 32.8
COc1cccc(Oc2ccc(N)cc2)c1: 64.1
CN(C)S(=O)(=O)c1ccc(Oc2ccc(S(=O)(=O)N(C)C)cc2)cc1: 19.7
Cn1c(Cc2csc(N)n2)nnc1SC/C=C/c1ccccc1: 61.6
COC(=O)Cc1nc2ccccc2[nH]1: 3
COc1cccc(-c2nnc(SCCOc3ccc4c(C)cc(=O)oc4c3)o2)c1: -15.6
COc1ccc2[nH]c3ccc(OC)cc3c2c1: 29.9
O=C(c1ccco1)N1CCN(C(=O)c2ccc(COc3ccc(F)cc3)o2)CC1: 25.1
CCc1ccc(N2CC(C(=O)NC3=NCCS3)CC2=O)cc1 (configuration not stated): -1.1
CCCOc1ccc(N2CC(C(=O)Nc3ccccn3)CC2=O)cc1 (configuration not stated): -18.5
Cc1nnc(SCCCn2c(N3CCCCC3)nc3c2c(=O)[nH]c(=O)n3C)s1: 22.6
CC12CN(Cc3ccccc3)CC(C)(CN(Cc3ccccc3)C1)C2=NO: 15.1
CCN1C(=O)C(CC(=O)Nc2cc(C)ccc2C)SC1=Nc1ccc(S(N)(=O)=O)cc1 (configuration not stated): 17.6
Cc1ccccc1-n1c(C)cc(/C=N/NC(=O)c2ccc(CN3CCOCC3)cc2)c1C: 24.3
O=C1c2oc3ccccc3c(=O)c2C(c2cccc(O)c2)N1c1ccccn1 (configuration not stated): 38.4
CSCCC(NC(=O)c1ccc(=O)n(C)n1)c1nc2ccccc2[nH]1 (configuration not stated): 8.7
O=C1c2oc3ccc(Br)cc3c(=O)c2C(c2cccc(F)c2)N1CCO (configuration not stated): 40.4
CSc1ccc(S(=O)(=O)NCc2ccc(Cl)cc2)cc1: 78.2
Cn1c(=O)c(C(=O)Nc2ncccn2)c(O)c2ccccc21: 7.9
O=C(COc1ccccc1)NCCc1nc2ccccc2[nH]1: 65.9
CC(C)CC(=O)N/C(N)=N/c1nc2ccccc2s1: 36.7
CS(=O)(=O)N(CC(=O)N1CCOCC1)c1ccc2c3c(cccc13)CC2: 32.7
Cc1cc(=O)oc2cc(OCC3CC(c4ccccc4Cl)=NO3)ccc12 (configuration not stated): 50.8
O=C(Nc1ccccc1)N(Cc1cccnc1)Cc1ccco1: 76.4
O=C(COC(=O)c1ccc(Oc2ccccc2)cc1)Nc1nnc(-c2ccccc2)o1: 34.2
Cc1ccc(Oc2ccc(N)cc2)cc1: 87.9
O=C(CS(=O)(=O)Cc1ccccc1)Nc1cccnc1: 6.9
Cc1ccccc1Nc1nc(N)nc(CN2CCN(c3ccccn3)CC2)n1: 12.9
O=C(Nc1cccc2ncccc12)c1ccc(-c2ccc(Cl)cc2Cl)o1: -13.7
Cc1n[nH]c(=S)n1/N=C/c1ccc(Br)o1: -3.6
Clc1ccc(Cl)c(Oc2ccc(Oc3nc(Cl)ccc3Cl)cc2)n1: -4.8
CC(=O)N(CN1C(=O)C2CC=CCC2C1=O)c1cccc(Cl)c1 (configuration not stated): 46.5
CN(CC(=O)NC1CCCCC1)S(=O)(=O)c1cccc2cccnc12: 57.6
Cc1cc(=O)oc2ccc(OCC(=O)O)cc12: 3.3
O=C(CSc1c2c(nc3ccc(Cl)cc13)CCCC2)NCc1ccco1: 29
N#CC(C(N)=O)=C1CCC2(CC1)OCCCCO2: 24.1
Cc1cnc(NC(=O)CSc2nnc(-c3ccc(Cl)cc3Cl)n2N)s1: 23.2
CC(C)C[C@@H](N)c1nnc(SCC(=O)c2ccc(Cl)cc2)o1: 90.5
Cc1cc(NCc2ccco2)n2c(nc3ccccc32)c1C#N: 0.2
Nc1ccc(Oc2ccc(Cl)cc2)cc1: 85.1
C=CCn1c(SCc2nnc(-c3ccccc3)o2)nnc1C(O)c1ccccc1 (configuration not stated): 55
O=C1CCC(Cc2ccccc2)N1 (configuration not stated): 8.7
COC(=O)NC1(C(F)(F)F)NC(=O)N(C2CCCCC2)C1=O (configuration not stated): 7.3
CC(=O)Nc1ccc(S(=O)(=O)Nc2cccc(NC(=O)C(C)(C)C)c2)cc1: 32.2

###

Molecular target: Cytochrome P450 2C19 (Homo sapiens) (UniProt P33261)
Assay: blockers of cytochrome P450 2C19 activity – biochemical, luminescence, ADME assay, primary screen (AID 778);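 further: plate controls were negative control wells for no effect and 2.5 mM tranylcypromine positive control for full effect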
Conditions: CYP2C19 Supersomes, luciferin-H EGE luminescence, 30 min; at 5 µM; hits give high values
Among all 96,000 compounds or so, about 20,000 (21%) were called active. The list is a sample of the results.
Record 1 whenever inhibition is at 10% or higher; record 0 when lower.

O=C(C1CC1)N1CCN=C1SCc1ccc(Cl)cc1: 1
c1ccc(CSCCc2ccncc2)cc1: 1
Cc1nc(C)c(-c2csc(NCCc3ccccc3)n2)s1: 1
O=C(C1=C(O)C(=O)N(c2ncccn2)C1c1cccs1)c1ccco1 (stereo not drawn): 0
CCCOC(=O)CC1C(=O)NCCN1Cc1ccc(F)cc1 (stereo not drawn): 1
CCN(CC)S(=O)(=O)c1cc([N+](=O)[O-])ccc1NNC(=O)Nc1ccccc1: 0
CC(CCO)Nc1nc2c([nH]1)c(=O)n(C)c(=O)n2C (stereo not drawn): 0
CCOC(=O)CSc1ncc(-c2cccc(Cl)c2)cn1: 1
CCN(c1ccccc1)S(=O)(=O)c1ccc(NC(=O)C(C)(C)C)cc1: 0
O=C(Nc1ccccc1F)C1C2C=CC3(O2)C1C(=O)N(c1cccnc1)C3C(=O)NC1CCCCC1 (stereo not drawn): 0
CN(CCC#N)c1ncnc2scc(-c3ccccc3)c12: 1
CCCCc1nc(NCCN)c(C#N)c2c1CSC(C)(C)C2: 1
CC(=O)Nc1cccc(/C(C)=N/NC(=O)c2ccccc2Cl)c1: 1
CC1CCN(c2nc3c(c(=O)[nH]c(=O)n3C)n2CCCc2ccccc2)CC1: 1
O=C(CSCc1ccc([N+](=O)[O-])cc1)NCCSCc1ccccc1: 1
COCc1cc(C)nc2sc3c(=O)n(-c4cccc5ccccc45)nnc3c12: 1
O=C1CC(c2cccc(Br)c2)C2=C(CCCC2=O)N1 (stereo not drawn): 1
Cc1ccc2[nH]c(=O)c(-c3nc4c(C)cccn4c3NCc3ccco3)cc2c1: 0
CCCOc1ccc(N2C(=O)CC(N(CCc3ccc(S(N)(=O)=O)cc3)C(C)=O)C2=O)cc1 (stereo not drawn): 0
CCC(=O)N1CCN=C1SCc1ccc(F)cc1: 1
CCC(=O)Nc1nc(OC)cc(OC)n1: 0
O=C(NCc1ccco1)c1cnn2c(C(F)(F)F)cc(-c3ccco3)nc12: 1
Cc1cccc(NC(=O)c2sc3nc4c(c(-c5ccco5)c3c2N)CCC4)c1: 1

The measurements presented in this section are drawn from PubChem BioAssay AID778.
